Some compounds, each annotated with its measured EC50.
Molecular target: MALT1 (Homo sapiens (Human))
Sequence (Q9UDY8 whole entry): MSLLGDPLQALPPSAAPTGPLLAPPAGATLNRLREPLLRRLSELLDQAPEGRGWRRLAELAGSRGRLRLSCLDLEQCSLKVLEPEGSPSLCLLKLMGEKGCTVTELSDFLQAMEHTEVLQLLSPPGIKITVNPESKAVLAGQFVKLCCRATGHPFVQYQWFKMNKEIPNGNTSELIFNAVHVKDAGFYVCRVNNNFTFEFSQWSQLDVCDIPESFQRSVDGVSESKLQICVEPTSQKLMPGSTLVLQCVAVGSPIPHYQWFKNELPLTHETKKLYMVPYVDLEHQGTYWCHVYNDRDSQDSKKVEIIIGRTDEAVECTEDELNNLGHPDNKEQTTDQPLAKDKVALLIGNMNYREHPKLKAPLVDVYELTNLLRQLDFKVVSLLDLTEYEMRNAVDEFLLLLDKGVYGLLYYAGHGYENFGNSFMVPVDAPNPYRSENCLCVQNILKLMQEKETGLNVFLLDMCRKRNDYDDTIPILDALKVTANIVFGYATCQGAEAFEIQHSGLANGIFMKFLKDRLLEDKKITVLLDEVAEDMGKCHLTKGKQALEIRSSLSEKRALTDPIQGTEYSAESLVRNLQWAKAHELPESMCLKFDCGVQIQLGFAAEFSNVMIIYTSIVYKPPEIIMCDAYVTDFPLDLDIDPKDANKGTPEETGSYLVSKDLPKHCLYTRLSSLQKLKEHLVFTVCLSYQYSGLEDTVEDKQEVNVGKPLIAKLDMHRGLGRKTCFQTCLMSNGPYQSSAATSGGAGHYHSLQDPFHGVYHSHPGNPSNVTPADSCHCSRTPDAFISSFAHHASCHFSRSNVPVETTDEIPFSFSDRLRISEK
Experiment: MALT1 enzymatic activity inhibition (fluorescence, Ac-LRSR-AMC substrate)
Type: biochemical
Settings: recombinant MALT1 1.5 ng/μl, Ac-LRSR-AMC 1 μM

Example results:
COMPOUND	EC50
CC(C)c1c(NC(=O)Nc2cnc(-c3noc(CCCC(=O)N4CCN(c5ccc6c(c5)CN(C5CCC(=O)NC5=O)C6=O)CC4)n3)c(Cl)c2)cnc2ccnn12 (stereo not drawn) [Compound 140]	≤ 0.2 µM
Cc1cc(NC(=O)Nc2cnc3ccnn3c2C2CCCC2)cnc1-c1noc(CCCCC(=O)Nc2ccc(C3CCC(=O)NC3=O)cc2)n1 (stereo not drawn) [Compound 101]	0.2 to 0.5 µM
Cc1cc(NC(=O)Nc2cnc3ccnn3c2C(C)C)cnc1-c1noc(CCCCC(=O)N2CCN(c3ccc4c(c3)CN(C3CCC(=O)NC3=O)C4=O)CC2)n1 (stereo not drawn) [Compound 86]	≤ 0.2 µM
Cc1cc(NC(=O)Nc2cnc3c(Cl)cnn3c2C2CCCC2)cnc1-c1noc(CCCCN2CCN(c3ccc4c(c3)CN(C3CCC(=O)NC3=O)C4=O)CC2)n1 (stereo not drawn) [Compound 20]	1 to 5 µM

Entry O=C1CCC(N2Cc3cc(N4CCN(CCCCCc5nc(-c6ncc(NC(=O)Nc7cnc8ccnn8c7C7CCCC7)cc6F)no5)CC4)ccc3C2=O)C(=O)N1 (stereo not drawn) [Compound 97] ; EC50 = ≤ 0.2 µM

The compound CC(C)(C)C(=O)OCN1C(=O)CCC(N2Cc3cc(N4CCN(C(=O)CCCCCc5nc(-c6ncc(NC(=O)Nc7cnc8ccnn8c7C7CCCC7)cc6Cl)no5)CC4)ccc3C2=O)C1=O (stereo not drawn) [Compound 70] showed EC50 equal to ≤ 0.2 µM

====

Molecular target: MALT1 (Homo sapiens (Human))
Assay: MALT1 enzymatic activity inhibition (fluorescence, Ac-LRSR-AMC substrate)
Assay type: biochemical
Conditions: recombinant MALT1 1.5 ng/μl, Ac-LRSR-AMC 1 μM
Listed here are compounds together with their documented EC50.

Documented EC50 of Cc1cc(NC(=O)Nc2cnc3ccnn3c2C2CCCC2)cnc1-c1nnc(CCCCCC(=O)N2CCN(c3ccc4c(c3)CN(C3CCC(=O)NC3=O)C4=O)CC2)o1 (centres unmarked) : ≤ 0.2 µM

Briefly, EC50 measured for COc1cc(-c2c(NC(=O)Nc3cnc(N4CCN(C(=O)COCC(=O)Nc5cccc6c5C(=O)N(C5CCC(=O)NC5=O)C6=O)CC4)c(C)c3)cnc3ccnn23)cc(OC)c1OC (centres unmarked) : > 5 µM

Per the record, Cc1cc(NC(=O)Nc2cnc3ccnn3c2C(C)C)cnc1-c1noc(CCCCCCN2CCN(c3ccc4c(c3)CN(C3CCC(=O)NC3=O)C4=O)CC2)n1 (centres unmarked) has EC50 of ≤ 0.2 µM

Lookup result for Cc1cc2ncc(NC(=O)Nc3cnc(-c4noc(CCCCCCN5CCN(c6ccc7c(c6)CN(C6CCC(=O)NC6=O)C7=O)CC5)n4)c(C)c3)c(C3CCCO3)n2n1 (centres unmarked) ; measured EC50: ≤ 0.2 µM

Record Cc1cc(NC(=O)Nc2cnc3ccnn3c2C2CCCC2)cnc1-c1noc(CCCCCN2CCN(c3ccc4c(c3)CN(C3CCC(=O)NC3=O)C4=O)CC2)n1 (centres unmarked) . Reported EC50: ≤ 0.2 µM

====

Molecular target: MALT1 (Homo sapiens (Human))
Experiment: MALT1 enzymatic activity inhibition (fluorescence, Ac-LRSR-AMC substrate)
Type: biochemical
Conditions: recombinant MALT1 1.5 ng/μl, Ac-LRSR-AMC 1 μM
Entries and their EC50 values follow.

COMPOUND	MEASURED_QUANTITY	OBSERVED_VALUE
Cc1cc(NC(=O)Nc2cnc3ccnn3c2C(C)C)cnc1-c1noc(CCCCC(=O)N2CCN(c3ccc4c(c3)CN(C3CCC(=O)N(COC(=O)C(C)(C)C)C3=O)C4=O)CC2)n1 (centres unmarked) [Compound 130]	EC50	≤ 0.2 µM

Recorded result, O=C(CCOCCN1CCN(c2ccc3c(c2)CN(C2CCC(=O)NC2=O)C3=O)CC1)NCCOc1ncc(Cl)cc1NC(=O)Nc1cnc2ccnn2c1C1CCOCC1 (centres unmarked) [Compound 42] , EC50: 0.5 to 1 µM
